Numbers sourced from ChEMBL document CHEMBL1153363.

Tested on: Mycobacterium tuberculosis
experiment summary: Antitubercular activity against rifampin-resistant Mycobacterium tuberculosis H37Rv ATCC 27294 after 7 days by microplate alamar blue assay
Assay type: functional
assay setup: 168 h
parameter measured: MIC

Example entries begin here.
Field MIC (Mycobacterium tuberculosis), entry "NNC(=O)c1ccncc1" : 0.43 µM

Assay Mycobacterium tuberculosis, sample "CCOC(=O)c1cc(COc2cc(C(F)(F)F)nc3cc(C(F)(F)F)cc(C(F)(F)F)c23)on1" , MIC read: 0.99 µM

# MIC measured on Mycobacterium tuberculosis for item "CO[C@H]1/C=C/O[C@@]2(C)Oc3c(C)c(O)c4c(O)c(c(/C=N/N5CCN(C)CC5)c(O)c4c3C2=O)NC(=O)/C(C)=C\C=C\[C@H](C)[C@H](O)[C@@H](C)[C@@H](O)[C@@H](C)[C@H](OC(C)=O)[C@@H]1C" = > 32 µM

For the molecule "CN[C@@H]1[C@H](O[C@H]2[C@H](O[C@H]3[C@H](O)[C@@H](O)[C@H](N=C(N)N)[C@@H](O)[C@@H]3N=C(N)N)O[C@@H](C)[C@]2(O)C=O)O[C@@H](CO)[C@H](O)[C@H]1O" , the measured MIC on Mycobacterium tuberculosis was 0.2 µM

With those in mind, consider the next molecule.
The recorded MIC with Mycobacterium tuberculosis for "CCOC(=O)c1cc(-c2cccc(Oc3cc(C(F)(F)F)nc4ccccc34)c2)on1" was 1.27 µM
